Target: Glutamate receptor ionotropic, kainate
Test: Displacement of [3H]kainate from rat brain cortical membrane Ionotropic glutamate receptor kainate
pIC50: −log10 of the molar value.
Readout Name: pIC50

Some entries whose results are on file:
- Structure Notation: "[O-][n+]1cc(Br)cc2nc(O)c(O)nc21"
  Reading: 5.47
- Structure Notation: "Cc1cnc2nc(O)c(O)nc2c1"
  Reading: 4.31
- Structure Notation: "CN1CCc2c([N+](=O)[O-])cc3[nH]c(=O)c(=O)[nH]c3c2C1"
  Reading: 6.44
- Structure Notation: "O=c1[nH]c2ccc(Cl)cc2[nH]c1=O"
  Reading: 4.28
- Structure Notation: "Oc1nc2cc(Br)cnc2nc1O"
  Reading: 4.80
- Structure Notation: "Oc1nc2cc(Cl)cnc2nc1O"
  Reading: 4.66
- Structure Notation: "O=c1[nH]c2cc(C(F)(F)F)c[n+]([O-])c2[nH]c1=O"
  Reading: 5.12
- Structure Notation: "O=[N+]([O-])c1cnc2nc(O)c(O)nc2c1"
  Reading: 5.36

A. [O-][n+]1cc(Cl)cc2nc(O)c(O)nc21
B. O=c1[nH]c2cc([N+](=O)[O-])c[n+]([O-])c2[nH]c1=O
Field: lower recorded pIC50 (choose A or B ) // output: label of the selected item
A
(A: 5.28, B: 5.62)

* * *

Biological target: UniProt:P35439
Assay: Inhibition of binding of [3H]DCKA to N-methyl-D-aspartate glutamate receptor 1 in rat brain membrane
Assay type: cell membranes
Readout Name: IC50 (nM)
All answers are understood in nM, so give the number only.

Dear colleague, I am looking for the recorded IC50 of the following compound: "O=[N+]([O-])c1ccc2cc(NS(=O)(=O)C(F)(F)F)c(O)nc2c1"
620

* * *

Target: Glutamate receptor ionotropic, NMDA 1 (Rattus norvegicus, UniProt P35439)
Assay: Binding affinity in rat brain cortical membranes by the displacement of [3H]- DCKA at N-methyl-D-aspartate glutamate receptor 1
Type: cell membranes
pIC50: −log10 of the molar value.
Readout Name: pIC50

Some entries whose results are on file:
- Structure Notation: "[O-][n+]1cc(Br)cc2nc(O)c(O)nc21"
  pIC50: 6.00
- Structure Notation: "O=c1[nH]c2cc([N+](=O)[O-])c[n+]([O-])c2[nH]c1=O"
  pIC50: 6.16

P. O=c1[nH]c2cc(C(F)(F)F)c[n+]([O-])c2[nH]c1=O
Q. Cc1cc2[nH]c(=O)c(=O)[nH]c2[n+]([O-])c1
Which of the two gives a bigger number for pIC50: P or Q ? // output: label of the selected item
P
(P: 5.98, Q: 5.23)

* * *

Target: Glutamate receptor ionotropic, AMPA (Rattus norvegicus, UniProt P19490+P19491+P19492+P19493)
pIC50: −log10 of the molar value.
Readout Name: pIC50

Some entries whose results are on file:
- Structure Notation: "Oc1nc2cc(Br)cnc2nc1O"
  pIC50: 4.49
- Structure Notation: "O=c1[nH]c2cc(Cl)c(Cl)c([N+](=O)[O-])c2[nH]c1=O"
  pIC50: 5.82
- Structure Notation: "Cc1cnc2nc(O)c(O)nc2c1"
  pIC50: 4.17
- Structure Notation: "O=c1[nH]c2cc(C(F)(F)F)c[n+]([O-])c2[nH]c1=O"
  pIC50: 5.23
- Structure Notation: "Oc1nc2cc(Cl)cnc2nc1O"
  pIC50: 4.42

1. Oc1nc2cc(C(F)(F)F)cnc2nc1O
2. [O-][n+]1cc(Cl)cc2nc(O)c(O)nc21
3. O=[N+]([O-])c1cnc2nc(O)c(O)nc2c1
Returns the items ordered by pIC50, from maximum to minimum. Rank the items, then write their labels in that order.
3, 2, 1
(3: 5.48, 2: 5.00, 1: 4.74)

1. [O-][n+]1cc(Br)cc2nc(O)c(O)nc21
2. O=c1[nH]c2ccc(Cl)cc2[nH]c1=O
Field: lower recorded pIC50 (choose 1 or 2 ) // output: label of the selected item
2

A. O=[N+]([O-])c1ccc2nc(O)c(O)nc2c1
B. Cc1cc2[nH]c(=O)c(=O)[nH]c2[n+]([O-])c1
C. O=c1[nH]c2cc([N+](=O)[O-])c[n+]([O-])c2[nH]c1=O
Sort low-to-high on pIC50, please. Rank the items, then write their labels in that order.
B, A, C

* * *

Target: Glutamate receptor ionotropic, AMPA (Rattus norvegicus, UniProt P19490+P19491+P19492+P19493)
Experiment: Inhibition of binding of [3H]AMPA to Ionotropic glutamate receptor AMPA in rat brain membrane
Format: cell membranes
Readout Name: pIC50
To interpret pIC50, take it as minus log10 of a concentration measured in moles per litre.

Dear colleague, I am looking for the recorded pIC50 of the following compound: "O=[N+]([O-])c1ccc2cc(NS(=O)(=O)C(F)(F)F)c(O)nc2c1"
6.20

* * *

Target: Glutamate NMDA receptor
Test: Displacement of [3H]DCKA at N-methyl-D-aspartate glutamate receptor 1
Format: protein-complex assay, Rattus norvegicus
pIC50: −log10 of the molar value.
Readout Name: pIC50

- Structure Notation: "[O-][n+]1cc(Cl)cc2nc(O)c(O)nc21"
  Reading: 6.09

a. O=[N+]([O-])c1cnc2nc(O)c(O)nc2c1
b. CN1CCc2c([N+](=O)[O-])cc3[nH]c(=O)c(=O)[nH]c3c2C1
c. Oc1nc2cc(C(F)(F)F)cnc2nc1O
d. O=c1[nH]c2cc(Cl)c(Cl)c([N+](=O)[O-])c2[nH]c1=O
e. O=[N+]([O-])c1ccc2nc(O)c(O)nc2c1
Sort low-to-high on pIC50, please. Rank the items, then write their labels in that order.
e, c, a, b, d

A. Oc1nc2cc(Cl)cnc2nc1O
B. Oc1nc2cc(Br)cnc2nc1O
Field: lower recorded pIC50 (choose A or B ) // output: label of the selected item
B

* * *

Experiment: Partition coefficient determined using octanol versus pH 7.4 buffer
Format: physicochemical
Details: octanol/pH 7.4 buffer
Readout Name: logD

Some entries whose results are on file:
- Compound: "O=c1[nH]c2cc(C(F)(F)F)c[n+]([O-])c2[nH]c1=O"
  Reading: -2.35
- Compound: "O=c1[nH]c2cc([N+](=O)[O-])c[n+]([O-])c2[nH]c1=O"
  Reading: -3.31
- Compound: "[O-][n+]1cc(Cl)cc2nc(O)c(O)nc21"
  Reading: -2.66
- Compound: "[O-][n+]1cc(Br)cc2nc(O)c(O)nc21"
  Reading: -2.48

A. Cc1cc2[nH]c(=O)c(=O)[nH]c2[n+]([O-])c1
B. O=[N+]([O-])c1cnc2nc(O)c(O)nc2c1
C. O=c1[nH]c2cc(Cl)c(Cl)c([N+](=O)[O-])c2[nH]c1=O [LICOSTINEL]
Returns the items ordered by logD, from maximum to minimum. Rank the items, then write their labels in that order.
C, B, A
(C: 0.21, B: -0.97, A: -2.91)

* * *

Target: Glutamate receptor ionotropic, kainate
Assay: Displacement of [3H]kainate from rat brain cortical membrane Ionotropic glutamate receptor kainate
pIC50: −log10 of the molar value.
Readout Name: pIC50

- Structure Notation: "O=[N+]([O-])c1ccc2nc(O)c(O)nc2c1"
  pIC50: 4.82
- Structure Notation: "Cc1cc2[nH]c(=O)c(=O)[nH]c2[n+]([O-])c1"
  pIC50: 4.92
- Structure Notation: "Oc1nc2cc(C(F)(F)F)cnc2nc1O"
  pIC50: 4.80
